system tested: T1, recombinant human FGF23 (R179Q) (human, UniProt Q9GZV9 25-251)
T1 construct: also called rhFGF23(R179Q); hFGF23(R179Q)
T1 sequence (looked up): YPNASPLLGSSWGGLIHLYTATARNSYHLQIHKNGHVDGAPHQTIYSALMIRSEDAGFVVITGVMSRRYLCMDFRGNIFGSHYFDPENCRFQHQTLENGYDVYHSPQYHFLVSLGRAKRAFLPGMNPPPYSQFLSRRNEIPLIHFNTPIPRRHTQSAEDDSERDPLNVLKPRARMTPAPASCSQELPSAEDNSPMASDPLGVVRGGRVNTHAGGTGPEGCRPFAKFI
test summary: SPR, antibody captured on hIgG chip, rhFGF23(R179Q) analyte
endpoint label: kon
Write the numeric value and append its unit.

Reference set (3 entries):
# binder, kon
records = [
    ("UGX182 (antibody, human IgG1, kappa, V domains shown, also called HC:S59D, HC:V101I; S59D/V101I) VH: QVQLVQSGAEVKKPGASVKVSCKASGYTFTNHYMHWVRQAPGQGLEWMGIINPISGSTDNAQKFQGRVTMTRDTSTSTVYMELSSLRSEDTAVYYCARDIIDAFDFWGQGTMVTVSS VL: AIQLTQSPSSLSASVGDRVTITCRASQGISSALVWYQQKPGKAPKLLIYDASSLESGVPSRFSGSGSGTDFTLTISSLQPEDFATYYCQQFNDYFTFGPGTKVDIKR", "1.49e+07 M⁻¹ s⁻¹"),
    ("UGX153 (antibody, human IgG1, kappa, V domains shown, also called HC:N31R) VH: QVQLVQSGAEVKKPGASVKVSCKASGYTFTRHYMHWVRQAPGQGLEWMGIINPISGSTSNAQKFQGRVTMTRDTSTSTVYMELSSLRSEDTAVYYCARDIVDAFDFWGQGTMVTVSS VL: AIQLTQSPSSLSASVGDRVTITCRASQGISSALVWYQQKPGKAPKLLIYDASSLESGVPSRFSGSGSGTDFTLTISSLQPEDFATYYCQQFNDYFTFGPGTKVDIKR", "2.87e+06 M⁻¹ s⁻¹"),
    ("UGX190 (antibody, human IgG1, kappa, V domains shown, also called HC:S59T, HC:V101L) VH: QVQLVQSGAEVKKPGASVKVSCKASGYTFTNHYMHWVRQAPGQGLEWMGIINPISGSTTNAQKFQGRVTMTRDTSTSTVYMELSSLRSEDTAVYYCARDILDAFDFWGQGTMVTVSS VL: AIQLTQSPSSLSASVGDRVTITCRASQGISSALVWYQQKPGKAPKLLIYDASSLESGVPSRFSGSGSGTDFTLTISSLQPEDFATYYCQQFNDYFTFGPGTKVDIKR", "3.35e+06 M⁻¹ s⁻¹"),
]

Looking for the measured kon of UGX188 (antibody, human IgG1, kappa, V domains shown, also called HC:S57E, HC:S59D) VH: QVQLVQSGAEVKKPGASVKVSCKASGYTFTNHYMHWVRQAPGQGLEWMGIINPISGETDNAQKFQGRVTMTRDTSTSTVYMELSSLRSEDTAVYYCARDIVDAFDFWGQGTMVTVSS VL: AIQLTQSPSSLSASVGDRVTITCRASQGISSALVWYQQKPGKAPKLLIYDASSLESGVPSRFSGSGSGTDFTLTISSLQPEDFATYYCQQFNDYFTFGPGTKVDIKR , can you help? 1.39e+07 M⁻¹ s⁻¹

Also, UGX152 (antibody, human IgG1, kappa, V domains shown, also called HC:N31Q) VH: QVQLVQSGAEVKKPGASVKVSCKASGYTFTQHYMHWVRQAPGQGLEWMGIINPISGSTSNAQKFQGRVTMTRDTSTSTVYMELSSLRSEDTAVYYCARDIVDAFDFWGQGTMVTVSS VL: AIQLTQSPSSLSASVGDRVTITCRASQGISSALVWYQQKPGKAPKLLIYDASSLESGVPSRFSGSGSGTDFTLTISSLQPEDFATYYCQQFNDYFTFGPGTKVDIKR please. 6.29e+06 M⁻¹ s⁻¹
